SYSTEM: human MASP-2 enzyme as present in normal human serum (human, UniProt O00187 16-686)
Sequence (O00187 16-686 limits assumed): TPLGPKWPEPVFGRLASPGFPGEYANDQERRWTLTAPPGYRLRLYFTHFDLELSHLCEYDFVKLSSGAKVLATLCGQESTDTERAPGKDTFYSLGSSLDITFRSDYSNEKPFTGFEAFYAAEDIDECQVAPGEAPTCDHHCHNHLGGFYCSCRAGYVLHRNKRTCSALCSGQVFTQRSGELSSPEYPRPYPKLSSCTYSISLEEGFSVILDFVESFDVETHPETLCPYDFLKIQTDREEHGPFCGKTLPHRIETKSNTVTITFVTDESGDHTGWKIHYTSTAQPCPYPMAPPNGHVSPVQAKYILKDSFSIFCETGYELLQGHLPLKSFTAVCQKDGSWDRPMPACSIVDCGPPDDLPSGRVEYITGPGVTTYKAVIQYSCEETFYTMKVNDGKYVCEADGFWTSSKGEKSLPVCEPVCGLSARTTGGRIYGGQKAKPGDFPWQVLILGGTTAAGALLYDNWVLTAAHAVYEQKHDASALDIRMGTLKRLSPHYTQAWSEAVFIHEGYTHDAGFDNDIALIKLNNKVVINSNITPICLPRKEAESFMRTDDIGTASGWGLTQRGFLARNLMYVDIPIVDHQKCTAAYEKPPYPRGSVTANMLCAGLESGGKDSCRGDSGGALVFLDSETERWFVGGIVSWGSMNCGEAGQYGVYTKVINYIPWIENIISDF
RUN DESCRIPTION: cell-based or functional assay
Where no end group is shown, it is not given here.
MEASURE: IC50 (nM), lectin pathway activity in diluted human serum (WIELISA, C5b-9)

BINDER	ENDPOINT VALUE
protein according to SEQ ID NO: 17 (TFPI-D2 variant with the inhibitor loop VCRAVKR) (designed binder, ends and bridges not checked; cysteine pairing not given here, Made as m1) KPDFCFLEEDPGVCRAVKRRYFYNNQTKQCERFKYGGCLGNMNNFETLEECKNICEDG	380
protein according to SEQ ID NO: 14 (TFPI-D2 variant with the inhibitor loop PCRAVKR) (designed binder, ends and bridges not checked; cysteine pairing not given here, Made as m1) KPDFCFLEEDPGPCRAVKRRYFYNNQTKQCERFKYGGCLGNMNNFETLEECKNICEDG	90
protein according to SEQ ID NO: 11 (TFPI-D2 variant with the inhibitor loop FCRAVKR) (designed binder, ends and bridges not checked; cysteine pairing not given here, Made in E. coli as a His6-S100A4 fusion and freed by TEV protease) KPDFCFLEEDPGFCRAVKRRYFYNNQTKQCERFKYGGCLGNMNNFETLEECKNICEDG	35
GSGEVTCEPGTTFKDKCNTCRCGSDGKSAVCTKLWCNQ (designed binder, Comparator from WO 2012/007777) [SGMI-2 (SGCI-based MASP inhibitor 2)]	174
